# assay_protocol: viability gain of MRP-1-high H69AR cells under doxorubicin, pilot screen, MRP-1 activator project, CellTiter-Glo, duplicate (AID 807);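 note: compound pretreatment 18-22 h then 72 h combined with doxorubicin; 0% = doxorubicin alone and 100% = vehicle without doxorubicin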
# particulars: H69AR viability with doxorubicin, CellTiter-Glo luminescence; at 10 µM; stronger effect = higher value
Reported viability increase values are given for each entry in this list.
Reply with just the number (in %).

Request: Quick one: viability increase of O=S(=O)(c1ccc(Br)cc1)N1CCN(c2cc(-c3ccccc3)nc3ncnn23)CC1 ?
Result: -5.82

Request: Quick one: viability increase of O=C(CSc1ccc2c(c1)OCCO2)NC(=O)NC1CCCC1 ?
Result: -1.38

Request: Quick one: viability increase of COc1ccc(Br)cc1C1CC(=O)N2CN(Cc3ccccc3)CSC2=C1C#N (stereo not given) ?
Result: -4.64

Request: Quick one: viability increase of CC(C)N1CCc2c(sc(NC(=O)c3ccc(S(=O)(=O)N4CCOCC4)cc3)c2C(N)=O)C1 ?
Result: -3.25

Request: Quick one: viability increase of COc1cccc(N2C(=O)Nc3ccccc3C2(O)C(=O)NCc2ccc3c(c2)OCO3)c1 (stereo not given) ?
Result: -0.4

Request: Quick one: viability increase of CCOc1ccccc1C1C(C(=O)Nc2ccccc2OC)=C(C)Nc2nc(CCCO)nn21 (stereo not given) ?
Result: -3.55

Request: Quick one: viability increase of C=CCn1c(N(C)C)nc2c1c(=O)[nH]c(=O)n2C ?
Result: 1.25

Request: Quick one: viability increase of CCOC(=O)c1ccc(NC(=O)CSc2nc(C)cc(=O)[nH]2)cc1 ?
Result: -1.06

Request: Quick one: viability increase of COc1ccc(CCNC(=O)CCn2c(=O)oc3ccccc32)cc1OC ?
Result: -0.1

Request: Quick one: viability increase of O=C(CN1c2cccc3cccc(c23)S1(=O)=O)NCc1ccc2c(c1)OCO2 ?
Result: -3.03
